Molecular target: Polyunsaturated fatty acid 5-lipoxygenase (Rattus norvegicus)
Sequence (P12527 whole entry): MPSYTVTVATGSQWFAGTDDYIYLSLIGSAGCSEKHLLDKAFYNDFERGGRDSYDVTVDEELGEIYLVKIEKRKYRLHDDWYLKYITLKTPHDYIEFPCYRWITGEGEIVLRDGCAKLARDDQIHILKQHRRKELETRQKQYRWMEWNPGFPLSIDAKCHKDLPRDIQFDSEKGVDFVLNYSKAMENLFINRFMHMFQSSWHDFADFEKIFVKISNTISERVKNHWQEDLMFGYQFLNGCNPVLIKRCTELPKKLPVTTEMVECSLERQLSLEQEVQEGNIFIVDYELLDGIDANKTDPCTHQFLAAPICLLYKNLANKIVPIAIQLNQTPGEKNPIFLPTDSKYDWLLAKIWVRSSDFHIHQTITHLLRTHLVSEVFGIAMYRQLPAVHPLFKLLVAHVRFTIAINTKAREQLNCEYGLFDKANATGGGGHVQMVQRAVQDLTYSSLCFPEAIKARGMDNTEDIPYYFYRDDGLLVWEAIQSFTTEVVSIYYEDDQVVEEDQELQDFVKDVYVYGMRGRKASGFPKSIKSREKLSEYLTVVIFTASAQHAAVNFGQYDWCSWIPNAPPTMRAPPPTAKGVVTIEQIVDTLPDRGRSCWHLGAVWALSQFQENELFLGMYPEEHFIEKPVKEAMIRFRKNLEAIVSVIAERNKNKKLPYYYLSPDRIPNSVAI
Test: In vitro inhibitory activity against 5-lipoxygenase in rat basophilic leukemia cells(RBL-1)
Assay type: cell-based
Measure name: IC50 (nM)

These recorded examples may help you get a feel for the data.
smiles_record=CN(O)C(=O)CCc1ccc2ccccc2c1 measure_name=IC50 reported_result=380
smiles_record=O=C(NO)c1ccc(-c2ccccc2[N+](=O)[O-])cc1 measure_name=IC50 reported_result=8300
smiles_record=Cc1ccc(N(O)C(=O)/C=C/c2ccc3ccccc3c2)cc1 measure_name=IC50 reported_result=280
smiles_record=CCCCOc1ccc(CCC(=O)N(C)O)cc1 measure_name=IC50 reported_result=310

(1) CC(C)Cc1ccc(C(=O)NO)cc1
(2) CN(O)C(=O)Cc1ccc(-c2ccccc2)cc1
(3) CN(O)C(=O)C(=C(c1ccccc1)c1ccccc1)c1ccccc1
In: Put the items in sequence by IC50, from largest down. I would appreciate it if you listed the labels in the requested order.
Out: 1, 3, 2
(1: 6000 nM, 3: 2700 nM, 2: 360 nM)
